Procedure Details: Human HepG2 cell viability assay in 384 well format
Type: toxicity, cell-based
Set-up: dose 125 nL, time 70.5 hour; concentration not given beside the values
Condition Summary: HepG2 cells, read-out: Inhibition
Assay Metric: cytotoxicity at 70.5 h (%)

>  <Compound>
CCOc1cc(CNC(C)c2sccc2C)ccn1 (centres undefined)

>  <Unit Text>
%

>  <Experimental Result>
-0.185

$$$$
>  <Compound>
COCCN1CCc2cc(C(=O)NCC3CC3)c(NC(C)C)nc2CC1

>  <Unit Text>
%

>  <Experimental Result>
24.8

$$$$
>  <Compound>
Cc1ccc(C(=O)NCCCNS(C)(=O)=O)c(=O)[nH]1

>  <Unit Text>
%

>  <Experimental Result>
-3.31

$$$$
>  <Compound>
CN(C)Cc1nnc(C2CCN(c3ncccn3)CC2)n1C1CC1

>  <Unit Text>
%

>  <Experimental Result>
12.1

$$$$
>  <Compound>
CC(C)N1CC(c2ccnc(Nc3nccs3)n2)C1

>  <Unit Text>
%

>  <Experimental Result>
-10.4

$$$$
>  <Compound>
CC1CN(Cc2nc(Cc3ccccc3F)no2)CCN1C (centres undefined)

>  <Unit Text>
%

>  <Experimental Result>
-2.74

$$$$
>  <Compound>
CCSCCC(=O)Nc1ncn(Cc2ccccc2)n1

>  <Unit Text>
%

>  <Experimental Result>
-14.4

$$$$
>  <Compound>
Cc1ncc(S(=O)(=O)Nc2ccnn2C2CCCCC2)[nH]1

>  <Unit Text>
%

>  <Experimental Result>
-1.01

$$$$
>  <Compound>
CCCS(=O)(=O)N1CCC(NC(=O)c2ccc(C)s2)CC1

>  <Unit Text>
%

>  <Experimental Result>
-8.95

$$$$
>  <Compound>
c1ccc(CN2CCCC[C@H]3CN(c4ncccn4)C[C@H]32)cc1

>  <Unit Text>
%

>  <Experimental Result>
-6.75

$$$$
>  <Compound>
CSc1cccc(NC(C)C(=O)Nc2nccs2)c1 (centres undefined)

>  <Unit Text>
%

>  <Experimental Result>
6.07

$$$$
>  <Compound>
Cc1ncnc2c1CCN(C(=O)CN(C)C)CC2

>  <Unit Text>
%

>  <Experimental Result>
19.6

$$$$
>  <Compound>
CC(=O)N1CCC(Nc2cc(F)ccc2OCC2CCCO2)CC1 (centres undefined)

>  <Unit Text>
%

>  <Experimental Result>
11.4

$$$$
>  <Compound>
CCS(=O)(=O)N1CCCn2cnc(COc3cccnc3)c2C1

>  <Unit Text>
%

>  <Experimental Result>
-2.04

$$$$
>  <Compound>
O=S(=O)(Cc1ccccc1)NC[C@H]1Cn2ccnc2CO1

>  <Unit Text>
%

>  <Experimental Result>
10.3

$$$$
>  <Compound>
CO[C@@H]1CO[C@@]2(CCCN(Cc3nc(C)cs3)C2)C1

>  <Unit Text>
%

>  <Experimental Result>
-1.7

$$$$
>  <Compound>
O=C(Nc1cnccn1)[C@@H]1CCO[C@@H]2CCN(Cc3ccsc3)C[C@@H]21

>  <Unit Text>
%

>  <Experimental Result>
-9.48

$$$$
>  <Compound>
Cc1ccc(OCCC(=O)NCCCN2CCCC2=O)c(C)c1

>  <Unit Text>
%

>  <Experimental Result>
17.8

$$$$
>  <Compound>
OCC1COCCN(Cc2cc(C3CCCCC3)no2)C1 (centres undefined)

>  <Unit Text>
%

>  <Experimental Result>
-9.08

$$$$
>  <Compound>
CC(C)C1CN(c2ncccn2)CCC(=O)N1Cc1ccc(F)cc1 (centres undefined)

>  <Unit Text>
%

>  <Experimental Result>
1.56

$$$$
>  <Compound>
CNc1c(NCc2ccco2)c(=O)c1=O

>  <Unit Text>
%

>  <Experimental Result>
-12.4

$$$$
>  <Compound>
COc1ccc(N2CCN(C(=O)C(C)n3cc(Br)cn3)CC2)cc1 (centres undefined)

>  <Unit Text>
%

>  <Experimental Result>
-1.02

$$$$
>  <Compound>
Cn1cc(C(=O)NC[C@@H]2OC[C@H]3CN(Cc4ccco4)CC[C@H]32)cn1

>  <Unit Text>
%

>  <Experimental Result>
-7.09

$$$$
>  <Compound>
COc1ccc(F)cc1C(=O)C1CCCN(Cc2ccc(C)s2)C1 (centres undefined)

>  <Unit Text>
%

>  <Experimental Result>
-12.9

$$$$

---

Procedure Details: Human HepG2 cell viability assay in 384 well format
Format: toxicity, cell-based
Set-up: dose 125 nL, time 70.5 hour; concentration not given beside the values
Condition Summary: HepG2 cells, read-out: Inhibition
Below, each of the compounds is paired with its reported cytotoxicity at 70.5 h value.

>  <Compound>
Cc1noc(C)c1C(=O)N1Cc2ncn(C)c2C(COCC(C)C)C1 (stereo unspecified)

>  <Unit Text>
%

>  <cytotoxicity at 70.5 h>
-7

$$$$
>  <Compound>
Cc1cccc(CN2CCC3(CCN(c4ncccn4)CC3)C2=O)c1

>  <Unit Text>
%

>  <cytotoxicity at 70.5 h>
1.2

$$$$
>  <Compound>
CN(C)S(=O)(=O)N1C[C@@H]2CC[C@H](C1)N(Cc1ccc3nsnc3c1)C2

>  <Unit Text>
%

>  <cytotoxicity at 70.5 h>
5.66

$$$$
>  <Compound>
Cc1cc(C)n(C2CN(CCC(=O)NC3CCCCC3)C2)n1

>  <Unit Text>
%

>  <cytotoxicity at 70.5 h>
-4.9

$$$$
>  <Compound>
COc1cc(N2C[C@@H]3COC[C@]3(COc3ncccc3F)C2)ncn1

>  <Unit Text>
%

>  <cytotoxicity at 70.5 h>
-9.91

$$$$
>  <Compound>
COc1ccc(CN2CCC3(CC(Nc4ccncn4)C3)C2)c(OC)c1 (stereo unspecified)

>  <Unit Text>
%

>  <cytotoxicity at 70.5 h>
-6.97

$$$$
>  <Compound>
O=C(NC1CC1)N1CCc2ccc(=O)n(Cc3ccncc3)c2CC1

>  <Unit Text>
%

>  <cytotoxicity at 70.5 h>
12.1

$$$$
>  <Compound>
CCCc1cc(NCc2ccc(CO)cc2)n2nccc2n1

>  <Unit Text>
%

>  <cytotoxicity at 70.5 h>
1.98

$$$$
>  <Compound>
Cc1ccc(CN2C[C@@H]3CCN(Cc4ccncc4)C(=O)[C@H]3C2)s1

>  <Unit Text>
%

>  <cytotoxicity at 70.5 h>
-8.9

$$$$
>  <Compound>
CCc1nc2n(n1)CC(NCC(=O)Nc1cc(C)nn1C)CC2 (stereo unspecified)

>  <Unit Text>
%

>  <cytotoxicity at 70.5 h>
-6.14

$$$$
>  <Compound>
CNc1cc(CNC(=O)c2ccnc(OC)c2)nc(-c2ccncc2)n1

>  <Unit Text>
%

>  <cytotoxicity at 70.5 h>
11.8

$$$$

---

# cytotoxicity at 70.5 h listing for each entry below
Procedure Details: Human HepG2 cell viability assay in 384 well format
Format: toxicity, cell-based
Design: dose 125 nL, time 70.5 hour; concentration not given beside the values
Condition Summary: HepG2 cells, read-out: Inhibition
Assay Metric: cytotoxicity at 70.5 h

>  <Compound>
CCS(=O)(=O)N1CCc2ccc(NC(=O)Nc3ccccc3C)cc21

>  <Experimental Result>
-11%

$$$$
>  <Compound>
COCCN1CCCC(O)(CN2CCCN(c3ncccn3)CC2)C1=O (stereo unspecified)

>  <Experimental Result>
2.84%

$$$$
>  <Compound>
COc1cc(-n2ccnc2-c2ccc(C(=O)O)s2)ccc1NC(C)=O

>  <Experimental Result>
-7.67%

$$$$
>  <Compound>
CC(=O)NC1CCCN(Cc2ccn(C)c(=O)c2)C1 (stereo unspecified)

>  <Experimental Result>
-9.51%

$$$$
>  <Compound>
Cc1cc(C)c2nc(CN3CCC(CN)CC3)cc(O)c2c1

>  <Experimental Result>
2.77%

$$$$
>  <Compound>
Cc1noc(C)c1CCC(=O)N1CCCN(Cc2cccs2)CC1

>  <Experimental Result>
-6%

$$$$
>  <Compound>
c1cnc2c(c1)cc([C@H]1CCCO1)n2CCN1CCCCC1

>  <Experimental Result>
20.3%

$$$$
>  <Compound>
COc1ccc(CN2C[C@@H]3COC[C@H](N4CCN(C)CC4)[C@@H]3C2)cc1

>  <Experimental Result>
-5.19%

$$$$
>  <Compound>
Cc1nn(C)c2c(=O)n(C(C)C)c(NCC3CCCO3)nc12 (stereo unspecified)

>  <Experimental Result>
-9.24%

$$$$
>  <Compound>
CCCc1cc(=O)[nH]c2nnc(SCC(=O)OC)n12

>  <Experimental Result>
-8.96%

$$$$
>  <Compound>
CC(C)CC(CCO)CNC(=O)N1CCC1(C)C (stereo unspecified)

>  <Experimental Result>
-1.15%

$$$$
